- experimental-target: Calpain I (Homo sapiens)
- Sequence (P07384 whole entry): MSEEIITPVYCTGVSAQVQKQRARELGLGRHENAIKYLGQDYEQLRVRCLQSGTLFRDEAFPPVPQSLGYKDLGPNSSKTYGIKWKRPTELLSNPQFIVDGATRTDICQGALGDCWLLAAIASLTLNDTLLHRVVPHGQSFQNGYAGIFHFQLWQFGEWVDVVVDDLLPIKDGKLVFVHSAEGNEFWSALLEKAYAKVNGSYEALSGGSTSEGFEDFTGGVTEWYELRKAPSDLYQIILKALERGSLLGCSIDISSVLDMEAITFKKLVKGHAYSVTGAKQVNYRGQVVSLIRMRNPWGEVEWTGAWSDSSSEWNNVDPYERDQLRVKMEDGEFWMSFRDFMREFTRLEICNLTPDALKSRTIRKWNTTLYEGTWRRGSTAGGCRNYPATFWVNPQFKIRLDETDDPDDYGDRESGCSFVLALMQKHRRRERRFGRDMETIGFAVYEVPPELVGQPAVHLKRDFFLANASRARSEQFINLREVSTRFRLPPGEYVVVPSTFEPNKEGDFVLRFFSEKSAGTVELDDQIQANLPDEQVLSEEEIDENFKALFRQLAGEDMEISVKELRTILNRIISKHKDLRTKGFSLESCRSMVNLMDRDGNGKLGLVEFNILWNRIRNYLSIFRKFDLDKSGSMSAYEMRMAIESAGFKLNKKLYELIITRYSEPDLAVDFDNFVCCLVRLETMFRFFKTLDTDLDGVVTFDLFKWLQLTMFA
- Sequence (P04632 whole entry partner): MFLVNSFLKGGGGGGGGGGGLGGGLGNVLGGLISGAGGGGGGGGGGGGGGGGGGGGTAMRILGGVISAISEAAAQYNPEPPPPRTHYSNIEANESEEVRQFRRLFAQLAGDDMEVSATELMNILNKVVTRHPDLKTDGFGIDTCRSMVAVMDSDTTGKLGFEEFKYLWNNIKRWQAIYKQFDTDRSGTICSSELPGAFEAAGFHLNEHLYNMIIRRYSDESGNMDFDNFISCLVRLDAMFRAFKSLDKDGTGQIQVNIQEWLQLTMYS
Listed below: IC50 values for each entry.
Field: numeric (nM). Do not append units.

(Q) Could you share which IC50 value was measured for CC(C)CC(CC(=O)N1CCc2ccccc2C1)C(=O)N[C@H](C=O)Cc1ccccc1 (single isomer, unassigned) [Compound 16f-II] ?
(A) 1000

(Q) What value of IC50 has been reported for the following compound? CCNC(=O)C(=O)C(CC)NC(=O)C(CC(=O)C1c2ccccc2Oc2ccccc21)CC(C)C (stereo not drawn) [Compound 8d, Xanthene-COCH2 CH(iBu.)CO-Abu-CONHEt]
(A) 485

(Q) Look at this compound and give its reported IC50. CC(C)CC(CC(=O)N1CCN(c2ccccc2)CC1)C(=O)N[C@H](C=O)CC(C)C (single isomer, unassigned) [Compound 16g-I, Ph-Piperazine-COCH2 CH(iBu)CO-Leu-H]
(A) 227
